PROTOCOL_DETAILS: amyloid nucleation score (Sup35N fusion, yeast selection) (log enrichment); library NNK3; higher = more nucleation; inactive = no reads after selection;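 also: zero at mode of non-aggregating sequences after 7 days selection at 30°C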

[
  {
    "SUBSTANCE": "IRLFAVTAYSIVTYVRFMIG",
    "amyloid nucleation score": "inactive"
  },
  {
    "SUBSTANCE": "ALESTMVWLSQRQGRFVHSL",
    "amyloid nucleation score": -0.284
  },
  {
    "SUBSTANCE": "VVRIDSSLGKFNFQSAKD",
    "amyloid nucleation score": "inactive"
  },
  {
    "SUBSTANCE": "DCRAIVLRL",
    "amyloid nucleation score": "inactive"
  },
  {
    "SUBSTANCE": "YVFLRVEILEKLQQV",
    "amyloid nucleation score": -0.522
  },
  {
    "SUBSTANCE": "KREPKS",
    "amyloid nucleation score": "inactive"
  },
  {
    "SUBSTANCE": "SQSWMSNLLMGSRDDL",
    "amyloid nucleation score": 1.58
  },
  {
    "SUBSTANCE": "WTSSVILRPSMCLLGWYMLV",
    "amyloid nucleation score": "inactive"
  },
  {
    "SUBSTANCE": "PEAVTCCNQKMTPVFIIGHP",
    "amyloid nucleation score": "inactive"
  },
  {
    "SUBSTANCE": "SMFCMVSFMMW",
    "amyloid nucleation score": -0.071
  },
  {
    "SUBSTANCE": "LRRYALLVNAAQKEMRYSSS",
    "amyloid nucleation score": -0.616
  },
  {
    "SUBSTANCE": "VFVAMNVFMVWICRLQGSLT",
    "amyloid nucleation score": 0.508
  },
  {
    "SUBSTANCE": "FERSMHFENRDSDPCYIVRF",
    "amyloid nucleation score": "inactive"
  },
  {
    "SUBSTANCE": "TSMSGYRTRNPMTVPHHCVV",
    "amyloid nucleation score": "inactive"
  },
  {
    "SUBSTANCE": "RPRNLSLASYTDSVMRFGLS",
    "amyloid nucleation score": "inactive"
  },
  {
    "SUBSTANCE": "SCYDVFSFYPSPFCLTNSVA",
    "amyloid nucleation score": "inactive"
  },
  {
    "SUBSTANCE": "SNEEYGGSQKETCTIGSSLG",
    "amyloid nucleation score": "inactive"
  }
]

====

PROTOCOL_DETAILS: amyloid nucleation score (Sup35N fusion, yeast selection) (log enrichment); library NNK2; higher = more nucleation; inactive = no reads after selection
Hi, to clarify the labels: Criterion met covers amyloid nucleation score from 0.4 upward, Criterion not met covers anything below 0.4.

[
  {
    "SUBSTANCE": "PRPFGKNWVKKDLNCLHKLN",
    "CATEGORY": "Criterion not met"
  },
  {
    "SUBSTANCE": "FVLWIRYALRVTDYTVYMGA",
    "CATEGORY": "Criterion met"
  },
  {
    "SUBSTANCE": "LSLVNGLRDVFTSGWALRCW",
    "CATEGORY": "Criterion met"
  },
  {
    "SUBSTANCE": "INWCSDMHNCVCLTIGQWLV",
    "CATEGORY": "Criterion met"
  },
  {
    "SUBSTANCE": "FDWNVDDYTFIYDN",
    "CATEGORY": "Criterion not met"
  },
  {
    "SUBSTANCE": "KARLIAITHLPRYYWSFGVL",
    "CATEGORY": "Criterion not met"
  },
  {
    "SUBSTANCE": "HHKLLGWFDVEKGMPVRLWA",
    "CATEGORY": "Criterion not met"
  },
  {
    "SUBSTANCE": "GVLGTLF",
    "CATEGORY": "Criterion not met"
  },
  {
    "SUBSTANCE": "KMLCYMYVVTHNVTLRHRLY",
    "CATEGORY": "Criterion not met"
  },
  {
    "SUBSTANCE": "LDILIYLKILDISFGNESCM",
    "CATEGORY": "Criterion not met"
  },
  {
    "SUBSTANCE": "IWHSVWYP",
    "CATEGORY": "Criterion not met"
  },
  {
    "SUBSTANCE": "SACIIVN",
    "CATEGORY": "Criterion not met"
  },
  {
    "SUBSTANCE": "IHRPTRFYTFSSSTSEQA",
    "CATEGORY": "Criterion not met"
  },
  {
    "SUBSTANCE": "GSSVDGADMIGTLK",
    "CATEGORY": "Criterion met"
  },
  {
    "SUBSTANCE": "FSPHHEPTSRG",
    "CATEGORY": "Criterion met"
  },
  {
    "SUBSTANCE": "IRKYVAWNLRALTMAMIQQR",
    "CATEGORY": "Criterion not met"
  },
  {
    "SUBSTANCE": "NLLLLTVRKLNAVNMSTPPY",
    "CATEGORY": "Criterion met"
  },
  {
    "SUBSTANCE": "LNLGILAFSKVKIGVFQFYE",
    "CATEGORY": "Criterion met"
  },
  {
    "SUBSTANCE": "EFMLSVRKVVPRIYGNNPRV",
    "CATEGORY": "Criterion met"
  },
  {
    "SUBSTANCE": "TDNNNVYYVYSLQVIPTVSD",
    "CATEGORY": "Criterion not met"
  },
  {
    "SUBSTANCE": "CTRRRM",
    "CATEGORY": "Criterion met"
  },
  {
    "SUBSTANCE": "LCGMLYAAAGHWFSVMPPGD",
    "CATEGORY": "Criterion met"
  },
  {
    "SUBSTANCE": "TAKLFDISTCKCPD",
    "CATEGORY": "Criterion not met"
  },
  {
    "SUBSTANCE": "LLLGINSCQEQPKGSFEERH",
    "CATEGORY": "Criterion not met"
  },
  {
    "SUBSTANCE": "KSCSEV",
    "CATEGORY": "Criterion not met"
  },
  {
    "SUBSTANCE": "STSWGSRSVDCC",
    "CATEGORY": "Criterion not met"
  },
  {
    "SUBSTANCE": "VRNFYLYVMWPWVQEFY",
    "CATEGORY": "Criterion met"
  },
  {
    "SUBSTANCE": "WIMNKANNCKCFIEDTNWS",
    "CATEGORY": "Criterion met"
  },
  {
    "SUBSTANCE": "VDRRNAKYWRGRKSTWVRGV",
    "CATEGORY": "Criterion met"
  },
  {
    "SUBSTANCE": "LVLFCAFRVTLGFSQTLNSM",
    "CATEGORY": "Criterion not met"
  },
  {
    "SUBSTANCE": "RFDSDNTFDPGRWYSCSQDA",
    "CATEGORY": "Criterion not met"
  },
  {
    "SUBSTANCE": "TDLYTCDVLRVLVCAH",
    "CATEGORY": "Criterion not met"
  }
]

====

PROTOCOL_DETAILS: amyloid nucleation score (Sup35N fusion, yeast selection) (log enrichment); library NNK2; higher = more nucleation; inactive = no reads after selection

[
  {
    "SUBSTANCE": "GTRTISLKGPSGYYA",
    "amyloid nucleation score": -0.689
  },
  {
    "SUBSTANCE": "DESSSRDETCGVFTHLVCVV",
    "amyloid nucleation score": -0.249
  },
  {
    "SUBSTANCE": "WKIQACVSYQQGAVRGVCVD",
    "amyloid nucleation score": 0.139
  },
  {
    "SUBSTANCE": "RLMTVI",
    "amyloid nucleation score": -0.229
  },
  {
    "SUBSTANCE": "NRYVLCNLVVISVSGISLCT",
    "amyloid nucleation score": 7.25
  },
  {
    "SUBSTANCE": "SCYLVYEFLLTGVSWWQSRL",
    "amyloid nucleation score": 0.794
  },
  {
    "SUBSTANCE": "KIFFKNDGAGSVWPSNKLYF",
    "amyloid nucleation score": -1.29
  },
  {
    "SUBSTANCE": "SRIRDLVPHIRC",
    "amyloid nucleation score": -0.594
  },
  {
    "SUBSTANCE": "SKFFCVSSVRFRLCVWG",
    "amyloid nucleation score": -0.14
  },
  {
    "SUBSTANCE": "FFSNRNCLE",
    "amyloid nucleation score": -1.34
  },
  {
    "SUBSTANCE": "RLSCDTVFMMSFGIICSFFN",
    "amyloid nucleation score": 4.42
  },
  {
    "SUBSTANCE": "YDNSYNWTATTFFGSRPDQS",
    "amyloid nucleation score": 4.55
  },
  {
    "SUBSTANCE": "TKEIVEGINTQLYRWTLFG",
    "amyloid nucleation score": -0.429
  },
  {
    "SUBSTANCE": "GDYWGAGWRRA",
    "amyloid nucleation score": 0.184
  },
  {
    "SUBSTANCE": "VYVFDIVRLG",
    "amyloid nucleation score": 0.465
  },
  {
    "SUBSTANCE": "CGRSRKRCIRASRSGSLNMC",
    "amyloid nucleation score": 0.293
  }
]
